# TESTED TARGET: Cytochrome P450 1A2 (Homo sapiens) (UniProt P05177)
# Sequence (P05177 whole entry, looked up): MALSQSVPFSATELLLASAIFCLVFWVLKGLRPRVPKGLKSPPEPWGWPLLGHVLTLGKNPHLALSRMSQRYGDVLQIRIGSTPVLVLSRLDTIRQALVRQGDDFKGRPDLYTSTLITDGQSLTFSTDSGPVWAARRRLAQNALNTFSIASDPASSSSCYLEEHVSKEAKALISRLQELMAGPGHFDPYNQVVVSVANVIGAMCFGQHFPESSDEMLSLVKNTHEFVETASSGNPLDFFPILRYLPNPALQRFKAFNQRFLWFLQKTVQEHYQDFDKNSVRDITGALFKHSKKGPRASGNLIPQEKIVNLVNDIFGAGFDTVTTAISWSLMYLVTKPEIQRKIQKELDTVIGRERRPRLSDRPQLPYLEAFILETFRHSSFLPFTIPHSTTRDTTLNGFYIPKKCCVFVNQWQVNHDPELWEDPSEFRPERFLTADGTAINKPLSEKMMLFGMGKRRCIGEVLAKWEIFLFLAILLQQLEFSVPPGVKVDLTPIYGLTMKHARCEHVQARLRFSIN
# ASSAY: Cytochrome P450 Family 1 Subfamily A Member 2 (CYP1A2) small molecule antagonists: luciferase reporter qHTS assay (AID 1671199); note: nearly all actives have a fitted effect of over 50% in size; note: potency is the fitted concentration of half-maximal effect
# APPLIED CONDITIONS: P450-Glo CYP1A2 enzyme, luciferin luminescence, 1 h; series mostly up to 115 µM
Inconclusive results are not listed. The source made the active and inactive calls. Calls come from the whole dose curve; as a rule, active = well fitted inhibition curve with a large enough effect in the repeat runs; inconclusive = weak or mixed curves; inactive = no such curve, though single readings can be large or run the other way.
READOUT TYPE: Potency

MOLECULE: C=C(C)C(=O)OCCC[Si](OC)(OC)OC
READOUT TYPE: Potency
RESULT: inactive
--
MOLECULE: O=[N+]([O-])c1cccc(Cl)c1
READOUT TYPE: Potency
RESULT: inactive
--
MOLECULE: COC(=O)Nc1nc2ccc(Sc3ccccc3)cc2[nH]1
READOUT TYPE: Potency
RESULT: 12.6 µM (active)
--
MOLECULE: O=C(O)c1ccc([N+](=O)[O-])cc1
READOUT TYPE: Potency
RESULT: inactive
--
MOLECULE: O=C1O[C@H](CO)[C@@H](O)[C@H](O)[C@H]1O
READOUT TYPE: Potency
RESULT: inactive
--
MOLECULE: O=S(=O)(O)c1cc(S(=O)(=O)O)c2c(N=Nc3ccccc3)c(O)ccc2c1
READOUT TYPE: Potency
RESULT: inactive
--
MOLECULE: CC1Cc2ccccc2N1NC(=O)c1ccc(Cl)c(S(N)(=O)=O)c1 (configuration not stated)
READOUT TYPE: Potency
RESULT: inactive

----------
# ASSAY: qHTS assay to identify small molecule antagonists of the peroxisome proliferator-activated receptor gamma (PPARg) signaling pathway - cell viability counter screen (AID 743194); note: nearly all actives have a fitted effect of over 55% in size
# APPLIED CONDITIONS: PPARg-bla HEK293H viability, CellTiter-Glo luminescence, 17 h, co-treated with 50 nM rosiglitazone; series mostly up to 62.6 µM
Records with an inconclusive call do not appear. The source made the active and inactive calls. The call rests on the fitted dose curve; in most records, active means well fitted cell-killing curve with a large enough effect in the repeat runs; inconclusive means weak or mixed curves, or effect the other way; inactive means no such curve, though single readings can be large or run the other way.
Labels: 1 (yes) for active, 0 (no) for inactive

COMPOUND: Cc1ccc(N)c(S(=O)(=O)O)c1
ASSIGNED CLASS: 0 (no)
--
COMPOUND: C=C(C)C(=O)OCCC[Si](OC)(OC)OC
ASSIGNED CLASS: 0 (no)
--
COMPOUND: CCCCOCCOCCOC(=O)CCCCC(=O)OCCOCCOCCCC
ASSIGNED CLASS: 0 (no)
--
COMPOUND: CC(=O)Nc1ccc(C(=O)O)cc1
ASSIGNED CLASS: 0 (no)
--
COMPOUND: Cc1cc(O)cc(C)c1Cl
ASSIGNED CLASS: 0 (no)
--
COMPOUND: CC1=CC[C@H]2C[C@@H]1C2(C)C
ASSIGNED CLASS: 0 (no)
--
COMPOUND: O=C1O[C@H](CO)[C@@H](O)[C@H](O)[C@H]1O
ASSIGNED CLASS: 0 (no)
--
COMPOUND: CC1(C)O[C@@H]2C[C@H]3[C@@H]4C[C@H](F)C5=CC(=O)CC[C@]5(C)[C@H]4[C@@H](O)C[C@]3(C)[C@]2(C(=O)CO)O1
ASSIGNED CLASS: 0 (no)
--
COMPOUND: CC1=C(CC(=O)O)c2cc(F)ccc2/C1=C\c1ccc(S(C)=O)cc1 (stereo not drawn)
ASSIGNED CLASS: 0 (no)
--
COMPOUND: CNC[C@H](O)[C@@H](O)[C@H](O)[C@H](O)CO
ASSIGNED CLASS: 0 (no)
--
COMPOUND: CC(C)(C)C(=O)C1C(=O)c2ccccc2C1=O
ASSIGNED CLASS: 0 (no)
--
COMPOUND: CC1COc2ccccc2N1C(=O)C(Cl)Cl (stereo not drawn)
ASSIGNED CLASS: 0 (no)
--
COMPOUND: OC[C@@H](O)[C@H](O)[C@H](O)[C@@H](O)CO
ASSIGNED CLASS: 0 (no)
--
COMPOUND: CC(C)n1c(/C=C/[C@@H](O)C[C@@H](O)CC(=O)O)c(-c2ccc(F)cc2)c2ccccc21
ASSIGNED CLASS: 0 (no)
--
COMPOUND: CCCCCCCCCCCCOCC1CO1 (stereo not drawn)
ASSIGNED CLASS: 0 (no)
--
COMPOUND: COCC(C)O (stereo not drawn)
ASSIGNED CLASS: 0 (no)
--
COMPOUND: C[C@@H](O)[C@H]1C(=O)N2C(C(=O)O)=C(S[C@@H]3CN[C@H](C(=O)N(C)C)C3)[C@H](C)[C@H]12
ASSIGNED CLASS: 0 (no)
--
COMPOUND: CC(C)(C)C1CCC(O)CC1 (stereo not drawn)
ASSIGNED CLASS: 0 (no)
--
COMPOUND: O=C(O)c1ccc([N+](=O)[O-])cc1
ASSIGNED CLASS: 0 (no)
--
COMPOUND: CC(C)(CO)COC(=O)C(C)(C)CO
ASSIGNED CLASS: 0 (no)
--
COMPOUND: C=CC(=O)OCCCCCCCC(C)C
ASSIGNED CLASS: 0 (no)
--
COMPOUND: CCc1ccc(O)cc1
ASSIGNED CLASS: 0 (no)
--
COMPOUND: NCCc1ccc(O)c(O)c1
ASSIGNED CLASS: 0 (no)
--
COMPOUND: Oc1ccc(OCc2ccccc2)cc1
ASSIGNED CLASS: 0 (no)
--
COMPOUND: CC(=O)CCc1ccccc1
ASSIGNED CLASS: 0 (no)
--
COMPOUND: O=C(c1cc(O)c(O)c(O)c1)c1ccc(O)c(O)c1O
ASSIGNED CLASS: 0 (no)
--
COMPOUND: O=S(=O)(O)c1cc(S(=O)(=O)O)c2c(N=Nc3ccccc3)c(O)ccc2c1
ASSIGNED CLASS: 0 (no)
--
COMPOUND: COC(=O)c1ccc(C(=O)OC)cc1
ASSIGNED CLASS: 0 (no)
--
COMPOUND: CCCCC(CC)C(=O)OCCOCCOCCOC(=O)C(CC)CCCC (stereo not drawn)
ASSIGNED CLASS: 0 (no)
--
COMPOUND: CC(C)(N=C=O)c1cccc(C(C)(C)N=C=O)c1
ASSIGNED CLASS: 0 (no)
--
COMPOUND: Cc1cc(O)c2c(c1)C(=O)c1cc(O)cc(O)c1C2=O
ASSIGNED CLASS: 0 (no)
--
COMPOUND: O=S(=O)(Oc1ccc(Cl)cc1Cl)c1ccccc1
ASSIGNED CLASS: 0 (no)
--
COMPOUND: CC1(C)CC(N=C=O)CC(C)(CN=C=O)C1 (stereo not drawn)
ASSIGNED CLASS: 0 (no)
--
COMPOUND: COC(=O)Nc1nc2ccc(Sc3ccccc3)cc2[nH]1
ASSIGNED CLASS: 0 (no)
--
COMPOUND: CCC(C)C=O (stereo not drawn)
ASSIGNED CLASS: 0 (no)
--
COMPOUND: CC(C)NCC(O)COc1cccc2ccccc12 (stereo not drawn)
ASSIGNED CLASS: 0 (no)
--
COMPOUND: OC1CCCC1
ASSIGNED CLASS: 0 (no)
--
COMPOUND: O=C(c1ccc(O)cc1)c1ccc(O)cc1O
ASSIGNED CLASS: 0 (no)
--
COMPOUND: Nc1c(S(=O)(=O)O)cc(Br)c2c1C(=O)c1ccccc1C2=O
ASSIGNED CLASS: 0 (no)
--
COMPOUND: C/C=C(C)/C=C/C=C(C)C
ASSIGNED CLASS: 0 (no)
--
COMPOUND: CCCCNC(N)=O
ASSIGNED CLASS: 0 (no)
--
COMPOUND: CCCCCC/C=C/CCCCCCCC(=O)O
ASSIGNED CLASS: 0 (no)
--
COMPOUND: O=C(O)c1cc(-c2ccccc2)nc2ccccc12
ASSIGNED CLASS: 0 (no)
--
COMPOUND: OCC1CCCO1 (stereo not drawn)
ASSIGNED CLASS: 0 (no)
--
COMPOUND: CCOC(=O)[C@H](CCc1ccccc1)N[C@@H](C)C(=O)N1Cc2ccccc2C[C@H]1C(=O)O
ASSIGNED CLASS: 0 (no)
--
COMPOUND: O=C(Oc1ccccc1)c1ccc(O)cc1
ASSIGNED CLASS: 0 (no)
--
COMPOUND: CN(C)c1ccc(C(=N)c2ccc(N(C)C)cc2)cc1
ASSIGNED CLASS: 1 (yes)
--
COMPOUND: C=C(C#N)C(=O)OCC
ASSIGNED CLASS: 0 (no)

----------
# ASSAY: A CellTox Green Cytotoxicity Assay to monitor cytotoxicity in HEK293 cells - 16 hour (AID 1224888); note: nearly all actives have a fitted effect of over 35% in size
# APPLIED CONDITIONS: CellTox Green fluorescence; series mostly up to 76.8 µM
Inconclusive results are not listed. Active and inactive are the calls of the source. The call rests on the fitted dose curve; in most records, active means well fitted activation curve with a large enough effect in the repeat runs; inconclusive means weak or mixed curves; inactive means flat fitted curve, though single readings scatter.
READOUT TYPE: outcome

COMPOUND: C=C1C2CCC(C2)C1(C)C (stereo not drawn)
RESULT: inactive
--
COMPOUND: C[C@@H]1O[C@@H](OC[C@H]2O[C@@H](Oc3c(-c4ccc(O)c(O)c4)oc4cc(O)cc(O)c4c3=O)[C@H](O)[C@@H](O)[C@@H]2O)[C@H](O)[C@H](O)[C@H]1O
RESULT: inactive
--
COMPOUND: c1ccc2ccccc2c1
RESULT: inactive
--
COMPOUND: CC(=O)[C@@]1(O)CC[C@H]2[C@@H]3CCC4=CC(=O)CC[C@]4(C)[C@H]3CC[C@@]21C
RESULT: inactive
--
COMPOUND: CC(C)(CO)COC(=O)C(C)(C)CO
RESULT: inactive
--
COMPOUND: CC#C[C@]1(O)CC[C@H]2[C@@H]3CCC4=CC(=O)CCC4=C3[C@@H](c3ccc(N(C)C)cc3)C[C@@]21C
RESULT: inactive
--
COMPOUND: O=[N+]([O-])c1cc(N(CCO)CCO)ccc1NCCO
RESULT: inactive
--
COMPOUND: Cc1cc(=O)[nH]c(C(C)C)n1
RESULT: inactive
--
COMPOUND: CCC(=O)O
RESULT: inactive
--
COMPOUND: NC(=O)/N=N/C(N)=O
RESULT: inactive
--
COMPOUND: CCOC(=O)C1OC1c1ccccc1 (stereo not drawn)
RESULT: inactive
--
COMPOUND: CNC[C@H](O)[C@@H](O)[C@H](O)[C@H](O)CO
RESULT: inactive
--
COMPOUND: COC(=O)Nc1nc2ccc(Sc3ccccc3)cc2[nH]1
RESULT: inactive
--
COMPOUND: Oc1ccc(OCc2ccccc2)cc1
RESULT: inactive
--
COMPOUND: NCCc1ccc(O)c(O)c1
RESULT: inactive
--
COMPOUND: NCCNCCNCCNCCN
RESULT: inactive
--
COMPOUND: CCCCCCC(C)(C)S
RESULT: inactive
--
COMPOUND: OCCOCCOCCOCCO
RESULT: inactive
--
COMPOUND: CS(=O)(=O)c1ccc([C@@H](O)[C@@H](CO)NC(=O)C(Cl)Cl)cc1
RESULT: inactive
--
COMPOUND: CCCCC(CC)COC(=O)/C=C\C(=O)OCC(CC)CCCC (stereo not drawn)
RESULT: inactive
--
COMPOUND: CCCCCCCCC
RESULT: inactive
--
COMPOUND: CC(C)(C)C1CCC(O)CC1 (stereo not drawn)
RESULT: inactive
--
COMPOUND: O=c1c(-c2ccc(O)cc2)coc2cc(O)ccc12
RESULT: inactive
